Data origin: patent US20200270125A1

In this section we review reported binding affinity values for a set of binders.
Target: T1, human MASP-3 (construct not stated) (human)
T1 construct: also called MASP-3 antigen
T1 chain: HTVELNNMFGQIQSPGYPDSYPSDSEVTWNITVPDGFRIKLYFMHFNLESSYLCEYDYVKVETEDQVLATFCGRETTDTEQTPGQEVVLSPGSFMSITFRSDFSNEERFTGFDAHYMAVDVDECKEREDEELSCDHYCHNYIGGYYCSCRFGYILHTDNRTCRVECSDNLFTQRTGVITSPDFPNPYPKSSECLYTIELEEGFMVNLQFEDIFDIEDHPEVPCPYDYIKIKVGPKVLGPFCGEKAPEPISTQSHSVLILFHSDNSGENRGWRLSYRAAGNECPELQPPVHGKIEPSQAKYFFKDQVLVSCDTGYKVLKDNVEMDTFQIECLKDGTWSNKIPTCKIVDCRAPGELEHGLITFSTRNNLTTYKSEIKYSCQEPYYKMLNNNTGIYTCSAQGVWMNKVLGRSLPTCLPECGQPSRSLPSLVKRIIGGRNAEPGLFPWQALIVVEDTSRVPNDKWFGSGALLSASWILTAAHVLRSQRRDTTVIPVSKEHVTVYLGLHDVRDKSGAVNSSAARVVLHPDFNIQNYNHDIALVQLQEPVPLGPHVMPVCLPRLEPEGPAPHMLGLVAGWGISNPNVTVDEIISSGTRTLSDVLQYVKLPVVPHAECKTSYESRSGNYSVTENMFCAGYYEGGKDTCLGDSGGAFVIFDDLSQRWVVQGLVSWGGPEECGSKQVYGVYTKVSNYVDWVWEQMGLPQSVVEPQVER
Assay: not described at this place

Previously resolved entries follow.
{"columns": ["BINDER", "RESULT VALUE"],
 "data": [
  ["MASP-3 mAb 1G4 (mouse-human chimeric IgG4) (antibody, V domains shown) VH: QVQLKQSGAELMKPGASVKLACKATGYTFTGYWIEWIKQRPGQGLEWIGEMLPGSGSTHYNEKFKGKATFTADTSSNTAYMQLSGLTTEDSAIYYCVRSIDYWGQGTTLTVSS VL: DVLMTQTPLSLPVSLGEQASISCRSSQSLVQSNGNTYLHWYLQKPGQSPKLLIYKVSNRFSGVPDRFSGSGSGTDFTLKISRVEAEDLGVYFCSQSTHVPPTFGGGTKLEIKR", "≤ 500 pM"],
  ["MASP-3 mAb 2F2 (mouse-human chimeric IgG4) (antibody, V domains shown) VH: QVQLKQSGAELVTPGASVKMSCKASGYTFTTYPIEWMKQNHGKSLEWIGNFHPYNDDTKYNEKFKGKATLTVEKSSNTVYLELSRLTSDDSAVYFCARRVYYSYFWFGYWGHGTLVTVSS VL: DIVMTQSQKFMSTSVGDRVNVTCKASQNVGTHVAWYQQKPGQSPKALIYSASYRYSGVPDRFTGSGSGTDFTLTISNVQSEDLAEYFCQQYNSYPRALTFGAGTKLELKR", "≤ 500 pM"]
]}

We now examine a further binder.
Record MASP-3 mAb 1E7 (mouse-human chimeric IgG4) (antibody, V domains shown) VH: QVQLKQSGPELARPWASVKISCQAFYTFSRRVHFAIRDTNYWMQWVKQRPGQGLEWIGAIYPGNGDTSYNQKFKGKATLTADKSSSTAYMQLSSLTSEDSAVYYCASGSHYFDYWGQGTTLTVSS VL: DIQLTQSPAILSVSPGERVSFSCRASQSIGTSIHWYQQRTNGSPRLLIKYASESISGIPSRFSGSGSGTDFTLSINSVESEDIADYYCQQSNSWPYTFGGGTKLEIKR , field binding affinity: ≤ 500 pM
